Taken from patent US20240109914A1.

Tested on: M. incognita J2 larvae
TEST DETAILS: Meloidogyne incognita in vitro larval mobility assay
Assay type: in vivo
CONDITION SUMMARY: Meloidogyne incognita, 96 h, 45 μM, 4 days, replicate 2; read-out: Replicate 2 % Immobile
// pest or weed control at 45 µM lookup, one value per entry
Could you give me the number in %? Just the number is fine.

Example molecules with recorded pest or weed control at 45 µM:
[
  {
    "MOLECULE": "c1cncc(-c2cn3ccsc3n2)c1",
    "VALUE MEASURED": 27.4
  },
  {
    "MOLECULE": "Clc1ccc(-c2cn3ccoc3n2)cc1 [I-47, 6-(4-chlorophenyl)imidazo[2,1-b]oxazole]",
    "VALUE MEASURED": 95.6
  }
]

Ask: Retrieve pest or weed control at 45 µM measured for "Cc1cn2cc(-c3ccccc3Cl)nc2s1" and print it.
Result: 40.8

Ask: Retrieve pest or weed control at 45 µM measured for "Cc1cn2cc(-c3ccccc3Br)nc2s1" and print it.
Result: 46.3

Ask: Retrieve pest or weed control at 45 µM measured for "Cc1c(-c2cccc(Cl)c2)nc2sccn12" and print it.
Result: 36.2

Ask: Retrieve pest or weed control at 45 µM measured for "Cc1cn2cc(-c3ccc(OC(F)(F)F)cc3)nc2s1" and print it.
Result: 47.3

Ask: Retrieve pest or weed control at 45 µM measured for "O=Cc1c(-c2ccccc2)nc2sccn12" and print it.
Result: 77.8

Ask: Retrieve pest or weed control at 45 µM measured for "c1ccc(-c2nc3sccn3n2)cc1" and print it.
Result: 23.2

Ask: Retrieve pest or weed control at 45 µM measured for "COc1ccc(-c2cn3ccsc3n2)cc1" and print it.
Result: 19.1

Ask: Retrieve pest or weed control at 45 µM measured for "Clc1ccc(-c2cn3ccsc3n2)cc1Cl" and print it.
Result: 36.2

Ask: Retrieve pest or weed control at 45 µM measured for "Ic1cccc(-c2cn3ccsc3n2)c1" and print it.
Result: 70.7

Ask: Retrieve pest or weed control at 45 µM measured for "Fc1ccccc1-c1cn2ccsc2n1" and print it.
Result: 77.6

Ask: Retrieve pest or weed control at 45 µM measured for "Cc1c(-c2ccc(Br)cc2)nc2sccn12" and print it.
Result: 32.8

Ask: Retrieve pest or weed control at 45 µM measured for "CCc1ccc(-c2cn3ccsc3n2)cc1" and print it.
Result: 29.4
